Exercise: for every item that follows, state its recorded inhibition at 50 µM.
# Test system: A549
# Test: Antiproliferative activity against human A549 cells assessed as reduction in cell viability at 50 uM incubated for 72 hrs by MTT assay relative to control
# Type: functional
# Conditions: A549, 72 h
One number for each entry, in %.

Reference set, count: 5
- Compound: "Cc1ncn(CC(=O)N2CC(Oc3cc(C)n(C4CC4)c(=O)c3)C2)c(=O)c1C"
  Observed: 4.5
- Compound: "CC(=O)c1ccc(NC(=O)COc2cc(C)nc(C3CCC(C)CC3)n2)cc1 (configuration not stated)"
  Observed: 45.8
- Compound: "O=C(c1ccco1)N1CCN(Cc2cc(=O)c(OCc3ccccc3)co2)CC1"
  Observed: 84.7
- Compound: "O=C(NCC(=O)N1CCCC(Cc2nc(C3CC3)no2)C1)c1ccccc1 (configuration not stated)"
  Observed: 25.8
- Compound: "N#Cc1cccnc1N1CCC(CNC(=O)C(=O)Nc2cccc(C(F)(F)F)c2)CC1"
  Observed: 45.7

Required: inhibition at 50 µM, one value per compound below.
1. O=C(CC1CSc2nc3c(cnn3-c3ccccc3)c(=O)n21)NCCCn1ccnc1 (configuration not stated)
2. O=C(Cn1cnc2ccccc2c1=O)N1CCN(C(=O)c2cc3n(n2)CCCC3)CC1
3. Cc1ncn(CC(=O)N2CCC(Oc3cncc(N(C)C)n3)C2)c(=O)c1C (configuration not stated)
4. COc1cccc(N2CCN(C3CCN(C(=O)c4cnn5c4OCCC5)CC3)CC2)c1

1. 36.9
2. 45.6
3. 47.8
4. 25.8

Required: inhibition at 50 µM, one value per compound below.
1. Cc1cc(N2CCC(CNS(=O)(=O)c3cccc4cccnc34)CC2)ccn1
2. O=C(CCC1CCCCC1)N1CCN(c2ncnc3c2nnn3Cc2ccccc2)CC1
3. COc1ccccc1OCC(=O)NC1CCC(Oc2nc(C)cc(C)n2)CC1 (configuration not stated)

1: 14.7; 2: 45.6; 3: 5.9

----------
# System: L-lactate dehydrogenase A chain (Homo sapiens, UniProt P00338)
# Test: Inhibition of recombinant human full-length N-terminal His-tagged LDHA (1 to 332 residues) expressed in Escherichia coli at 10 uM using sodium pyruvate as substrate incubated for 10 mins relative to control
Readout: inhibition

- Molecule: "O=C(NCC(=O)N1CCCC(Cc2nc(C3CC3)no2)C1)c1ccccc1 (stereo not given)"
  Readout: "inhibition"
  Observed: "> 90%"
- Molecule: "COc1cccc2c1OC(C(=O)N1CCC(Cn3ccnc3C(C)C)CC1)C2 (stereo not given)"
  Readout: "inhibition"
  Observed: "> 90%"
- Molecule: "O=C(CCC1CCCCC1)N1CCN(c2ncnc3c2nnn3Cc2ccccc2)CC1"
  Readout: "inhibition"
  Observed: "> 90%"
- Molecule: "Cc1ccccc1OCC(=O)NCc1nn(C2CCCC2)c2c1COCC2"
  Readout: "inhibition"
  Observed: "> 90%"

Value lookup for inhibition; key = COc1ccccc1OCC(=O)NC1CCC(Oc2nc(C)cc(C)n2)CC1 (stereo not given) > 90%

----------
# System: L-lactate dehydrogenase A chain (Homo sapiens)
# Test: Inhibition of recombinant human full-length N-terminal His-tagged LDHA (1 to 332 residues) expressed in Escherichia coli using sodium pyruvate as substrate incubated for 10 mins
pEC50: −log10 of the molar value.
Kind request: treat 6 as inclusive, so pEC50 at 6 or higher is condition met, anything lower is condition not met.

Previously resolved entries follow.
- Compound: "COc1ccccc1OCC(=O)NC1CCC(Oc2nc(C)cc(C)n2)CC1 (stereo unspecified)"
  Class: "condition not met"
- Compound: "O=C(c1ccco1)N1CCN(Cc2cc(=O)c(OCc3c(F)cccc3Cl)co2)CC1"
  Class: "condition not met"
- Compound: "O=C(c1ccco1)N1CCN(Cc2cc(=O)c(OCc3cccc(Cl)c3)co2)CC1"
  Class: "condition met"
- Compound: "Cc1ncn(CC(=O)N2CCC(Oc3cncc(N(C)C)n3)C2)c(=O)c1C (stereo unspecified)"
  Class: "condition not met"

Please indicate if the recorded pEC50 for `O=C(c1ccco1)N1CCN(Cc2cc(=O)c(OCc3ccc(F)cc3)co2)CC1` meets or exceeds 6. condition not met

Further, for `Cc1cc(N2CCC(CNS(=O)(=O)c3cccc4cccnc34)CC2)ccn1` ? condition met

Further, for `N#Cc1cccnc1N1CCC(CNC(=O)C(=O)Nc2cccc(C(F)(F)F)c2)CC1` ? condition not met

Further, for `Cc1ccccc1OCC(=O)NCc1nn(C2CCCC2)c2c1COCC2` ? condition not met

----------
# System: UniProtKB P00338
# Test: Inhibition of recombinant human full-length N-terminal His-tagged LDHA (1 to 332 residues) expressed in Escherichia coli using sodium pyruvate as substrate incubated for 10 mins
Lab note: cut-off is 2 µM. Strictly less in EC50 is t. Exactly 2 µM or more is f.

- Molecule: "O=C(c1ccco1)N1CCN(Cc2cc(=O)c(OCc3ccccc3F)co2)CC1"
  Class: "t"
- Molecule: "Cc1ncn(CC(=O)N2CC(Oc3cc(C)n(C4CC4)c(=O)c3)C2)c(=O)c1C"
  Class: "f"

Bench note: check whether COc1cccc2c1OC(C(=O)N1CCC(Cn3ccnc3C(C)C)CC1)C2 (stereo not drawn) shows EC50 below 2 µM f

Further, for CC(=O)c1ccc(NC(=O)COc2cc(C)nc(C3CCC(C)CC3)n2)cc1 (stereo not drawn) ? t

----------
# System: L-lactate dehydrogenase A chain (Homo sapiens)
# Test: Inhibition of recombinant human full-length N-terminal His-tagged LDHA (1 to 332 residues) expressed in Escherichia coli using sodium pyruvate as substrate incubated for 10 mins
Readout: pEC50
One number for each entry, as −log10 of the molar value.

Reference set, count: 5
- Molecule: "COc1cccc(N2CCN(C3CCN(C(=O)c4cnn5c4OCCC5)CC3)CC2)c1"
  pEC50: 5.47
- Molecule: "COc1cc(CNC(=O)c2c(OC)cc(=O)n3c2CCC3)cc(OC)c1OC"
  pEC50: 5.34
- Molecule: "O=C(CCC1CCCCC1)N1CCN(c2ncnc3c2nnn3Cc2ccccc2)CC1"
  pEC50: 5.67
- Molecule: "O=C(CC1CSc2nc3c(cnn3-c3ccccc3)c(=O)n21)NCCCn1ccnc1 (centres undefined)"
  pEC50: 5.11
- Molecule: "O=C(c1ccco1)N1CCN(Cc2cc(=O)c(OCc3cccc(F)c3)co2)CC1"
  pEC50: 5.43

Required: pEC50, one value per molecule below.
1. O=C(c1ccco1)N1CCN(Cc2cc(=O)c(OCc3ccccc3)co2)CC1
2. O=C(Cn1cnc2ccccc2c1=O)N1CCN(C(=O)c2cc3n(n2)CCCC3)CC1

6.17
6.05

Required: pEC50, one value per molecule below.
1. O=C(NCC(=O)N1CCCC(Cc2nc(C3CC3)no2)C1)c1ccccc1 (centres undefined)
2. O=C(c1ccco1)N1CCN(Cc2cc(=O)c(OCc3ccccc3Cl)co2)CC1

1. 5.48
2. 4.91
